Non-standard residues stand in square brackets, D forms with d. Residues, ends and D or L forms follow the SMILES beside them. *: point of attachment. hSer = N[CH](CCO)C(=O)O; Boc = CC(C)(C)OC(=O)*
GI50 tested on HCT-15: recorded values

- COCCC(NC(=O)C(CC(C)C)NC(=O)OC(C)(C)C)C(N)=O (stereo not drawn) (Boc-Leu-[hSer](Me)-NH2; configuration not given here): > 100 µM
- C[C@]12CCC(=O)C=C1CC[C@@H]1[C@@H]2[C@@H](O)C[C@@]2(C)[C@H]1CC[C@]2(O)C(=O)COC(=O)C1CCCC1: > 100 µM
- COc1cc(CC2CC(c3ccc4c(c3)OCO4)OC2=O)cc(OC)c1OC (configuration not stated): > 100 µM
- Nc1c(OCC(=O)O)ccc2cc(S(=O)(=O)O)ccc12: > 100 µM
- O=C1CCC2(c3ccc(Cl)cc3)Nc3ncncc3N12 (configuration not stated): > 10 µM

Task: Missing value: GI50, HCT-15, entry C/C(=N\NC(=O)c1ccncc1)c1sc(-n2nc(-c3ccccc3)cc2-c2ccccc2)nc1C . Fill in?
Result: > 31.6 µM

Task: # value lookup — system HCT-15, readout GI50, item [N-]=[N+]=NC1(c2ccccc2)C(=O)c2cccc3c4ccccc4n(c23)C1=O (configuration not stated)
Result: > 100 µM

Task: GET /values?readout=GI50&system=HCT-15&item= O=C1N/C(=N/N=C/C(O)C(O)C(O)C(O)CO)N/C1=C\c1cccs1 (configuration not stated)
Result: > 100 µM

###

tested on: RXF 393; assay: NCI tumour cell line growth inhibition, 48 h
Active and inactive are the calls of the source. Rule as the data show it: active = GI50 up to about 1.1 µM and inactive = higher.
assayMetric: GI50

Example entries begin here.
- C=CCN(C(=O)OC(C)(C)C)C1=CC2C(C)=CN(S(=O)(=O)c3ccccc3)C2C(OCc2ccccc2)=C1 (stereo not given): 36.1 µM (inactive)
- OCC1COc2cc(Cl)c(Cl)cc2O1 (stereo not given): > 10 µM (inactive)
- CN(C)CCNC(=O)c1cccc2cc3cc(O)ccc3nc12: 1.11 µM (active)
- CC(=O)OC1CC2C(=O)CC1(C)C2(C)C (stereo not given): > 100 µM (inactive)

Task: Which GI50 value is on record for Cc1nc(C)c(C(=O)NNC(=O)Cc2ccccc2)cc1C(=O)NNC(=O)Cc1ccccc1 ?
Result: > 100 µM (inactive)

Task: I would be grateful if you could share the reported GI50 for COc1cc(NC(C)=O)ccc1C(=O)NN1C(=O)C(Cl)C1c1ccco1 (stereo not given) .
Result: > 100 µM (inactive)

Task: Consider the molecule shown here: N#CCCN(CCC#N)c1ccc(/C=C2\N=C(c3ccccc3)N(c3ccc(F)cc3)C2=O)cc1 What is its recorded GI50?
Result: > 100 µM (inactive)

Task: Given CCCCCCCCCCCCN1[C@H]2CCC[C@H]2C(O)[C@@H]2CCC[C@@H]21 (stereo not given in full) , state its recorded GI50.
Result: > 100 µM (inactive)

Task: Bench note: what GI50 did COc1ccc(-n2c(-c3ccccc3)cc(-c3cccs3)c2-c2cccs2)cc1 show?
Result: 76.9 µM (inactive)

Task: Using the record for COC1=CC(=O)O/C1=C(\OC)C1OC1c1ccccc1 (stereo not given) , report its GI50.
Result: > 100 µM (inactive)

Task: Which GI50 value is on record for CC1(c2ccc(Cl)cc2)c2ccccc2C(=O)N1CCCN1C(=O)c2ccccc2C1=O (stereo not given) ?
Result: 29.4 µM (inactive)

Task: What value of GI50 has been recorded for this entry: COc1ccc(/C=C2/SC(c3ccccc3)N(NC(=O)CCCCCCCCC(=O)NN3C(=O)/C(=C\c4ccc(OC)c(OC)c4)SC3c3ccccc3)C2=O)cc1OC (stereo not given)
Result: 58.5 µM (inactive)

Task: Name the reported GI50 value associated with the molecule CC1(C)OC[C@@H]([C@H](O)C2C=CC(=O)S2)O1 (stereo not given in full)
Result: 15 µM (inactive)

Task: Requested field: GI50. Item: CC(C)C1(O)C(=O)N(c2c(F)c(F)c(F)c(F)c2F)C(=S)N1CCSc1ccccc1 (stereo not given)
Result: 17.3 µM (inactive)

Task: Reported GI50, molecule FC(F)(F)c1ccc2c(c1)nc(Cc1ccc(Cl)c(Cl)c1)n2CC1CCCN2CCCCC12 (stereo not given) : ____
Result: 23.6 µM (inactive)

Task: Please look up its GI50: CC(C(=O)O)c1ccc(-c2ccccc2)c(F)c1 (stereo not given) [FLURBIPROFEN]
Result: > 100 µM (inactive)

Task: Fill blank: measured GI50 of the molecule COC(=O)C1OC2(CCCC3CC32)O[C@H]1C(=O)OC (stereo not given in full) is ____.
Result: > 100 µM (inactive)

Task: For the molecule shown here, CNC(=S)NNc1ncnc2c1ncn2-c1ccc(C)cc1 , give the reported GI50.
Result: > 100 µM (inactive)

###

tested on: HOP-92; assay: NCI tumour cell line growth inhibition, 48 h
Active and inactive are the calls of the source. Rule as the data show it: active = GI50 up to about 1.1 µM and inactive = higher.
assayMetric: GI50

Answered cases to consult:
• O=C1CCC2(c3ccc(Cl)cc3)Nc3ncncc3N12 (centres undefined) = > 10 µM (inactive)
• S=C1/C(=N/c2ccccc2)N(C2CCCCC2)/C(=N\C2CCCCC2)N1c1ccccc1 = > 100 µM (inactive)
• COc1c(O)c2c3c(c(C)cc(O)c3c1O)C(=O)C(O)(C(C)(C)C(C)=O)C2=O (centres undefined) = > 100 µM (inactive)
• CCOC(=O)c1oc2cc3c(c4c2c1-c1ccccc1N4C)C=CC(C)(C)O3 = 3.72 µM (inactive)
• Cc1ccc(S(=O)(=O)OCC(=O)O)cc1 = > 100 µM (inactive)

Task: Fill in the blank: the reported GI50 of COc1c2c(cc3c1C(O)N1CC[C@]34[C@H]3O[C@H]3[C@H](OC)C[C@@H]14)OCO2 (some centres undefined) is ____.
Result: > 100 µM (inactive)

Task: Which value of GI50 has been reported for CC(=O)OC1CC2C(=O)CC1(C)C2(C)C (centres undefined) in the records?
Result: > 100 µM (inactive)

Task: What value of measured GI50 is listed for Nc1nc(Cl)cc(NCC2(CO)CC(c3ccccc3)C2)n1 (centres undefined) ?
Result: 22.3 µM (inactive)

Task: GI50 for COC(=O)c1c[nH]c2nc(N3CCOCC3)nn2c1=O ?
Result: > 100 µM (inactive)

###

tested on: SF-539; assay: NCI tumour cell line growth inhibition, 48 h
Calls of active or inactive are those of the source. Rule as the data show it: active = GI50 up to about 1.1 µM and inactive = higher.
API: response.call in TRUE for active, FALSE for inactive

* CC1(O)CC2C(CC1SC1CC3C(CC1(C)O)C3(C)C)C2(C)C (configuration not stated) | FALSE
* Cn1c2ccccc2c2ccc3c(c21)C(=O)C(c1ccccc1)=CC3=O | FALSE
* C=C1CC[C@](C)(O)[C@@]2(C)CC[C@H]3C(=C(C)C)C(=O)C[C@]3(C)C[C@H]12 | FALSE

Task: // return assay outcome for C=C(C)C(=O)O[C@H]1CC2=CC(CC(C)=C[C@H]3OC(=O)C(=C)C13)OC2=O (some centres not stated)
Result: FALSE

Task: What was the test verdict on OC(C/C=N/N=C/CC(O)(C(F)(F)Cl)C(F)(F)Cl)(C(F)(F)Cl)C(F)(F)Cl ?
Result: FALSE

Task: State the result this test recorded for CNC(=S)NNc1ncnc2c1ncn2-c1ccc(C)cc1 .
Result: FALSE

Task: Field: outcome | Entry: CC(=O)Oc1ccc(Nn2c3ccccc3c3ccccc32)c(C)c1
Result: FALSE

Task: Would you mind telling me which call this test gave NS(=O)(=O)c1ccc(NCc2cnc3ccccc3c2)cc1 ?
Result: FALSE

###

tested on: SNB-75; assay: NCI tumour cell line growth inhibition, 48 h
The source made the active and inactive calls. No stated cut-off is given here; in the data, active = GI50 up to about 1.1 µM and inactive = higher.
assayMetric: GI50

- O=C(CCC(=O)OCC1OC(O)(CC2OC(CO)C(O)C(O)C2O)C(O)C1O)OCc1ccccc1 (centres undefined): > 100 µM (inactive)

Task: Look up GI50 for this compound: CSCC[C@H]1C(=O)N=C(N)N1C(=O)OCc1ccccc1
Result: 60.7 µM (inactive)

Task: // returns reported GI50 for input CCOC(=O)c1oc2cc3c(c4c2c1-c1ccccc1N4C)C=CC(C)(C)O3
Result: 12.6 µM (inactive)

Task: Which value of GI50 has been reported for C=CCN1C(N)=C(C#N)C(C#N)(C#N)C1CCC (centres undefined) in the records?
Result: > 100 µM (inactive)

Task: I have this compound here, NS(=O)(=O)c1ccc(NCc2cnc3ccccc3c2)cc1 , and I need its recorded GI50.
Result: > 100 µM (inactive)

Task: Which GI50 value is on record for CC(=O)NC1C(OCc2ccccc2)OC(COC(=O)CCCCCCCCCCNC(=O)CCNc2ccc([N+](=O)[O-])c3[nH]c4ccc(O)cc4c(=O)c23)C(O)C1OC(C)C(=O)N[C@H](C(=O)N[C@H](CCC(=O)O)C(N)=O)C(C)C (some centres undefined) ?
Result: 17.1 µM (inactive)
